Catalogue of compounds with associated TGI
System: HCC-2998 colon
Assay: NCI tumour cell line growth inhibition, 48 h

Recorded TGI, per entry:
COMPOUND: COc1cc(/C=C2/C(=O)NC(Cc3cc(OC)c(OC)c(C)c3OC)C(=O)N2Cc2ccccc2)c(OC)c(C)c1OC (stereo not drawn)
TGI: > 100 µM

COMPOUND: O=C(/C=C(\O)c1ccc(Cl)cc1)C(=O)NN=C(c1ccccc1)c1ccccc1
TGI: > 100 µM

Let's switch to this compound now.
Fill in the blank: the reported TGI of O=C(CCCCCCC(=O)Nc1ccc2c(c1)/C(=C/c1ccc[nH]1)C(=O)N2)NO is ____.
10.9 µM

----------
System: SF-268 CNS
Assay: NCI tumour cell line growth inhibition, 48 h
ENDPOINT: TGI

Example entries begin here.
COMPOUND: C/C=C/C=C\C1OC(O)([C@H](CC)C(=O)NC/C=C/C=C(\C)[C@H](OC)C(C)C2OC(\C=C/C=C/C=C(\C)C(=O)c3c(O)ccn(C)c3=O)[C@H](O)[C@@H]2O)C(O)C(O)C1(C)C (some centres not stated)
TGI: > 100 µM
--
COMPOUND: O=C(CCCCCCC(=O)Nc1ccc2c(c1)/C(=C/c1ccc[nH]1)C(=O)N2)NO
TGI: 13.3 µM
--
COMPOUND: CCOc1ccccc1NC(=O)C1=C(C)NC(C)=C(C(=O)Nc2ccccc2OCC)C1c1ccc(NC(C)=O)cc1
TGI: > 100 µM
--
COMPOUND: OC(C/C(=N\N=C(/CC(O)(C(F)(F)F)C(F)(F)F)c1ccccc1)c1ccccc1)(C(F)(F)F)C(F)(F)F
TGI: > 10 µM
--
COMPOUND: CC(C)C[C@@H]1NC(=O)[C@@H]2CCCN2C(=O)[C@@H]2CCCN2C(=O)[C@H](CC(C)C)NC(=O)[C@H](CO)NC(=O)[C@H](CCCCN)NC(=O)[C@H]([C@H](C)O)NC(=O)[C@@H]2CCCC[C@@H](NC1=O)C(=O)N[C@@H](Cc1ccccc1)C(=O)N1CCC[C@H]1C(=O)N[C@@H](CC(=O)O)C(=O)NCC(=O)N[C@@H](CCCN=C(N)N)C(=O)N2
TGI: > 50 µM

Which TGI value is on record for CN(C)CCNC(=O)c1cc(-c2nccn2C)nc2ccccc12 ?
> 100 µM

Data request, read-out TGI, for CC(C)c1ccc2[nH]c(O)c(C3=Nc4ccccc4C3=O)c2c1
> 100 µM

Look at this compound and give its reported TGI. O=C1c2c(nc3ccccc3c2-c2ccccc2)CN1Nc1ccccc1
> 100 µM

// returns reported TGI for input O=C1CCCC1NC(=O)C(F)(F)F (configuration not stated)
> 100 µM

Any idea what TGI was measured for CN(C)c1ccc(N=Nc2cccc3ncccc23)cc1 ?
> 100 µM

Tell me the measured TGI of COc1ccc2c(c1)CCCN1Cc3ccccc3CC21 (configuration not stated) , please.
> 100 µM

Sample CN1CCn2c(c(Sc3ccc(C(=O)NO)cc3)c3ccccc32)C1=O — what was its TGI?
3.85 µM

Need TGI, item O=C(/C=C1/NC(=O)CS1)Nc1ccccc1
> 100 µM

What value of TGI has been reported for the following compound? Clc1ccc2c(c1)-c1ccccc1C1=NCCN12
5.42 µM

# get_value(readout='TGI', item= O=C1C(=O)c2ccccc2C(O)=C1CCCCCCCCC1CCCCC1 )
22.6 µM

Using the record for C=C(C)[C@H](O)C(O)CC(C)[C@@H]1CCC23CC12CCC1[C@@]2(C)CCC(OC(C)=O)C(C)(C)C2CC(OC2OC(COC(C)=O)C(O)C(O)C2O)[C@]13C (some centres not stated) , report its TGI.
11 µM

Item CC1=Nn2c(nnc2-c2ccc(N)cc2)NC(C)(C)C1 has what recorded TGI?
> 100 µM
